# key: entry, value: KD Relative to 18B1
- subject of test: T1, hIL-7R (Example 11) (human, UniProt P16871 21-239)
- T1 construct: Called full length hIL-7R for the mRNA display and hIL-7R for the Biacore runs; also called full length hIL-7R; human IL-7R
- T1 chain: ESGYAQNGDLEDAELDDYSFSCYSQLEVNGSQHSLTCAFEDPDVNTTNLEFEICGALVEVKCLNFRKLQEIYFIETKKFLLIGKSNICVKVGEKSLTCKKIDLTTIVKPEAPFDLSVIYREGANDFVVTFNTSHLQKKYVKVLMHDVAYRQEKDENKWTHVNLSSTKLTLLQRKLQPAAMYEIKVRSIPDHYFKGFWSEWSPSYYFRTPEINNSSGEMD
- test summary: SPR (Biacore), ratio KD of parent 18B1 to KD of variant

binder	KD Relative to 18B1
18B1 LC L33A (antibody, human IgG1, kappa, V domains shown) VH: EVQLVESGGGLVQPGRSLRLSCAASGFTFDDHAMHWVRQAPGKGLEWVSGISWNSRGIGYADSVKGRFTIFRDNAKNSLYLQMNSLRAEDTALYYCAKDEYSRGYYVLDVWGQGTTVTVSS VL: AIQLTQSPSSLSASVGDRVTITCRASQGISSAAAWYQQKPGKAPKLLIYDASSLESGVPSRFSGSGSGTDFTLTISSLQPEDFATYYCQQFNSYPLWITFGQGTRLEIKR	1.08
18B1 LC Q90A (antibody, human IgG1, kappa, V domains shown) VH: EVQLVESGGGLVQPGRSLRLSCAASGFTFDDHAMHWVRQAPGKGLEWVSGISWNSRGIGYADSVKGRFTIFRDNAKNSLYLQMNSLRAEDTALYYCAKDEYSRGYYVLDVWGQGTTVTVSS VL: AIQLTQSPSSLSASVGDRVTITCRASQGISSALAWYQQKPGKAPKLLIYDASSLESGVPSRFSGSGSGTDFTLTISSLQPEDFATYYCQAFNSYPLWITFGQGTRLEIKR	1.46
18B1 LC F91A (antibody, human IgG1, kappa, V domains shown) VH: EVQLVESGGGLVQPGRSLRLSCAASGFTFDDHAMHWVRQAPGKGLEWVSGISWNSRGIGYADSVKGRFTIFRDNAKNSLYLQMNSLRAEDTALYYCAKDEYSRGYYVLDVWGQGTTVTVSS VL: AIQLTQSPSSLSASVGDRVTITCRASQGISSALAWYQQKPGKAPKLLIYDASSLESGVPSRFSGSGSGTDFTLTISSLQPEDFATYYCQQANSYPLWITFGQGTRLEIKR	0.19
18B1 LC Q27A (antibody, human IgG1, kappa, V domains shown) VH: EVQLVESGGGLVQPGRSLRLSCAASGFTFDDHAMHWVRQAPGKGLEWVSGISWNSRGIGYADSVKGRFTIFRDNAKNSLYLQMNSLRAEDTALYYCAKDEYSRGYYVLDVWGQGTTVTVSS VL: AIQLTQSPSSLSASVGDRVTITCRASAGISSALAWYQQKPGKAPKLLIYDASSLESGVPSRFSGSGSGTDFTLTISSLQPEDFATYYCQQFNSYPLWITFGQGTRLEIKR	1.06
18B1 LC I29A (antibody, human IgG1, kappa, V domains shown) VH: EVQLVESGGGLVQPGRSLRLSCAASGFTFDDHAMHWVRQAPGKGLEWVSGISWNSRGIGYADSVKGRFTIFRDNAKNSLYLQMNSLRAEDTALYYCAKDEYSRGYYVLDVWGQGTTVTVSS VL: AIQLTQSPSSLSASVGDRVTITCRASQGASSALAWYQQKPGKAPKLLIYDASSLESGVPSRFSGSGSGTDFTLTISSLQPEDFATYYCQQFNSYPLWITFGQGTRLEIKR	1.46
18B1 LC P95A (antibody, human IgG1, kappa, V domains shown) VH: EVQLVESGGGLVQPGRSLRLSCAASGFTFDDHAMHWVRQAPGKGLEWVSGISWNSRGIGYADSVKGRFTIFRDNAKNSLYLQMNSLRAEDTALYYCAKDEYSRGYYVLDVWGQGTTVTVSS VL: AIQLTQSPSSLSASVGDRVTITCRASQGISSALAWYQQKPGKAPKLLIYDASSLESGVPSRFSGSGSGTDFTLTISSLQPEDFATYYCQQFNSYALWITFGQGTRLEIKR	0.08
18B1 LC S93A (antibody, human IgG1, kappa, V domains shown) VH: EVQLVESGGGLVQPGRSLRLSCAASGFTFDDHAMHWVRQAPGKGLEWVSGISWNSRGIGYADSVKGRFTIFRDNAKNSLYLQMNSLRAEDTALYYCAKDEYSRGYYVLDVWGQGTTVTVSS VL: AIQLTQSPSSLSASVGDRVTITCRASQGISSALAWYQQKPGKAPKLLIYDASSLESGVPSRFSGSGSGTDFTLTISSLQPEDFATYYCQQFNAYPLWITFGQGTRLEIKR	1.86
18B1 LC S26A (antibody, human IgG1, kappa, V domains shown) VH: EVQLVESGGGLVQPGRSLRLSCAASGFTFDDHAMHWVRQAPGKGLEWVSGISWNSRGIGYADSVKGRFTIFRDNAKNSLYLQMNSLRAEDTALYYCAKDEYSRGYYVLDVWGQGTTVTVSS VL: AIQLTQSPSSLSASVGDRVTITCRAAQGISSALAWYQQKPGKAPKLLIYDASSLESGVPSRFSGSGSGTDFTLTISSLQPEDFATYYCQQFNSYPLWITFGQGTRLEIKR	1.28
18B1 LC S31A (antibody, human IgG1, kappa, V domains shown) VH: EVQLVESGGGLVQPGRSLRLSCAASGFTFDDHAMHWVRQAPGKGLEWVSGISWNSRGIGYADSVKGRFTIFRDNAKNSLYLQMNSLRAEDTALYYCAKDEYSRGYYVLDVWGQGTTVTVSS VL: AIQLTQSPSSLSASVGDRVTITCRASQGISAALAWYQQKPGKAPKLLIYDASSLESGVPSRFSGSGSGTDFTLTISSLQPEDFATYYCQQFNSYPLWITFGQGTRLEIKR	0.74
18B1 LC G28A (antibody, human IgG1, kappa, V domains shown) VH: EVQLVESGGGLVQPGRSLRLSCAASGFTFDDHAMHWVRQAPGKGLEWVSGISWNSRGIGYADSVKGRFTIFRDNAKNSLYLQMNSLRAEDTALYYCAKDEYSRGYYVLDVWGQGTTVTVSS VL: AIQLTQSPSSLSASVGDRVTITCRASQAISSALAWYQQKPGKAPKLLIYDASSLESGVPSRFSGSGSGTDFTLTISSLQPEDFATYYCQQFNSYPLWITFGQGTRLEIKR	0.85

Every entry's value here was drawn from patent US20220017627A1.
